Values from PubChem BioAssay (Tox21)

# ASSAY OVERVIEW: qHTS assay to test for compound auto fluorescence at 590 nm (red) in HepG2 cells (AID 720674); also: % is scaled to controls: 0 for no effect and ±100 for the full control effect
# ASSAY SETUP: HepG2 autofluorescence, red 540/590 nm, 1 h; series mostly up to 91.3 µM
# From the text: U.S. Tox21 Program National Center for Advancing Translational Sciences [NCATS] NIH Chemical Genomics Center [NCGC] U.S. Environmental Protection Agency [EPA] National Institutes of Environmental Health Sciences [NIEHS] National Toxicology Program [NTP] U.S. Food and Drug Administration [FDA] Tox21 Assay Overview: Compound auto fluorescence often interferes with screening of the compound library against various biological targets and signaling pathways. […] This assay includes the red fluorescence data. […]
Active and inactive are the calls of the source. Calls follow the shape of the dose curve; as a rule, active = well fitted curve in the direction sought with a large enough effect in the repeat runs; inconclusive = weak or mixed curves; inactive = flat fitted curve, though single readings scatter.
EXPERIMENTAL ENDPOINT: fluorescence, relative to Rose Bengal

MOLECULE | fluorescence, relative to Rose Bengal
N[C@@H](CCC(=O)N[C@@H](CS)C(=O)NCC(=O)O)C(=O)O | inactive
CC1=CCC(C(C)C)=CC1 | inactive
CC1(CO)CN(c2ccccc2)NC1=O (centres undefined) | inactive
O=C(NCCc1c[nH]c2ccccc12)c1cccnc1 | inactive
COCCOC(=O)C1=C(C)NC(C)=C(C(=O)OC(C)C)C1c1cccc([N+](=O)[O-])c1 (centres undefined) | inactive

INPUT: Quick check: fluorescence, relative to Rose Bengal of CC(C)C[C@H](NC(=O)CNC(=O)[C@H](Cc1ccc(O)cc1)NC(=O)[C@H](CO)NC(=O)[C@H](Cc1c[nH]c2ccccc12)NC(=O)[C@H](Cc1cnc[nH]1)NC(=O)[C@@H]1CCC(=O)N1)C(=O)N[C@@H](CCCN=C(N)N)C(=O)N1CCC[C@H]1C(=O)NCC(N)=O (stereo in doubt) ?
OUTPUT: inactive

INPUT: Quick check: fluorescence, relative to Rose Bengal of C[C@H](CCC(=O)O)[C@H]1CC[C@H]2[C@@H]3C(=O)C[C@@H]4CC(=O)CC[C@]4(C)[C@H]3CC(=O)[C@]12C ?
OUTPUT: inactive

INPUT: Quick check: fluorescence, relative to Rose Bengal of CC(=O)/C=C/C1C(C)=CCC(C)C1(C)C (centres undefined) ?
OUTPUT: inactive

INPUT: Quick check: fluorescence, relative to Rose Bengal of CCc1ccc(C=O)cc1 ?
OUTPUT: inactive

INPUT: Quick check: fluorescence, relative to Rose Bengal of c1ccc2c(c1)ccc1c3ccccc3ccc21 ?
OUTPUT: inactive

INPUT: Quick check: fluorescence, relative to Rose Bengal of Cc1cccc(C)c1NC(=O)c1ccccc1C(=O)O ?
OUTPUT: inactive

INPUT: Quick check: fluorescence, relative to Rose Bengal of CCC(CC)CO ?
OUTPUT: inactive

INPUT: Quick check: fluorescence, relative to Rose Bengal of CC(=O)OC(C)OC(=O)C(C)c1ccc(-c2ccccc2)c(F)c1 (centres undefined) ?
OUTPUT: inactive

INPUT: Quick check: fluorescence, relative to Rose Bengal of CCCOC(OCCC)OCCC ?
OUTPUT: inactive

INPUT: Quick check: fluorescence, relative to Rose Bengal of C=C(C)C(=O)OCC(C)(C)COC(=O)C(=C)C ?
OUTPUT: inactive

INPUT: Quick check: fluorescence, relative to Rose Bengal of O=C(OCc1ccccc1)C(=O)OCc1ccccc1 ?
OUTPUT: inactive

INPUT: Quick check: fluorescence, relative to Rose Bengal of CC(=C(CCOC(=O)C(C)C)SSC(CCOC(=O)C(C)C)=C(C)N(C=O)Cc1cnc(C)nc1N)N(C=O)Cc1cnc(C)nc1N ?
OUTPUT: inactive

INPUT: Quick check: fluorescence, relative to Rose Bengal of OC[C@H](Cc1cccc(O)c1)[C@H](CO)Cc1cccc(O)c1 ?
OUTPUT: inactive

INPUT: Quick check: fluorescence, relative to Rose Bengal of Nc1ccc([N+](=O)[O-])c(N)c1 ?
OUTPUT: inactive

INPUT: Quick check: fluorescence, relative to Rose Bengal of O=C(OCC(COC(=O)c1cccnc1)(COC(=O)c1cccnc1)COC(=O)c1cccnc1)c1cccnc1 ?
OUTPUT: inactive

INPUT: Quick check: fluorescence, relative to Rose Bengal of CC(=O)NCc1c(I)c(NC(C)=O)c(I)c(C(=O)O)c1I ?
OUTPUT: inactive

INPUT: Quick check: fluorescence, relative to Rose Bengal of CN1CCN(CC(=O)N2c3ccccc3C(=O)Nc3cccnc32)CC1 ?
OUTPUT: inactive

INPUT: Quick check: fluorescence, relative to Rose Bengal of CCO[Si](CCCS)(OCC)OCC ?
OUTPUT: inactive

INPUT: Quick check: fluorescence, relative to Rose Bengal of COCCOCCOCCOCCO ?
OUTPUT: inactive

INPUT: Quick check: fluorescence, relative to Rose Bengal of Cc1c(I)c(=O)n(-c2ccccc2)n1C ?
OUTPUT: inactive

INPUT: Quick check: fluorescence, relative to Rose Bengal of CC(C)(C)c1n[nH]c(=S)n(N)c1=O ?
OUTPUT: inactive

INPUT: Quick check: fluorescence, relative to Rose Bengal of C[Si](C)=O ?
OUTPUT: -0.082% [at 9.17 µM] (inactive)

====

# ASSAY OVERVIEW: qHTS assay to test for compound auto fluorescence at 535 nm (green) in HEK293 cell free culture (AID 720682); also: % is scaled to controls: 0 for no effect and ±100 for the full control effect
# ASSAY SETUP: cell-free medium, green autofluorescence 485/535 nm, active compounds read high; series mostly up to 91.3 µM
# Excerpt: U.S. Tox21 Program National Center for Advancing Translational Sciences [NCATS] NIH Chemical Genomics Center [NCGC] U.S. Environmental Protection Agency [EPA] National Institutes of Environmental Health Sciences [NIEHS] National Toxicology Program [NTP] U.S. Food and Drug Administration [FDA] Tox21 Assay Overview: Compound auto fluorescence often interferes with screening of the compound library against various biological targets and signaling pathways. […] This assay includes the green fluorescence data. […]
Active and inactive are the calls of the source. Calls follow the shape of the dose curve; as a rule, active = well fitted curve in the direction sought with a large enough effect in the repeat runs; inconclusive = weak or mixed curves; inactive = flat fitted curve, though single readings scatter.
EXPERIMENTAL ENDPOINT: activity change

COMPOUND | activity change
COCCOC(=O)C1=C(C)NC(C)=C(C(=O)OC(C)C)C1c1cccc([N+](=O)[O-])c1 (stereo unspecified) | inactive
CC(C)(C)c1cc(CCC(=O)NN)cc(C(C)(C)C)c1O | inactive
C[C@@H]1O[C@@H](O[C@@H]2[C@@H](O)[C@H](OCCc3ccc(O)c(O)c3)O[C@H](CO[C@@H]3O[C@H](CO)[C@@H](O)[C@H](O)[C@H]3O)[C@H]2OC(=O)/C=C/c2ccc(O)c(O)c2)[C@H](O)[C@H](O)[C@H]1O | inactive
CCCCNc1ccc(C(=O)OCCN(C)C)cc1 | -0.0203% [at 18.6 µM] (inactive)
CCCN1C[C@H](CSC)C[C@@H]2c3cccc4[nH]cc(c34)C[C@H]21 | inactive

Continue with the next compound.
INPUT: Quick check: activity change of Cc1ccc(S(=O)(=O)O)c(C)c1 ?
OUTPUT: inactive

====

# ASSAY OVERVIEW: qHTS RealTime-Glo MT Cell Viability Assay in HEK293 cells - 24 hour (AID 1224886); also: top concentration of the series differs between compounds; % is scaled to controls: 0 for no effect and ±100 for the full control effect; nearly all actives have a fitted effect of over 50% in size
# ASSAY SETUP: RealTime-Glo luminescence; series mostly up to 76.8 µM
Inconclusive results are not listed. The source made the active and inactive calls. Calls follow the shape of the dose curve; as a rule, active = well fitted cell-killing curve with a large enough effect in the repeat runs; inconclusive = weak or mixed curves, or effect the other way; inactive = flat fitted curve, though single readings scatter.
EXPERIMENTAL ENDPOINT: activity change, negative = cytotoxicity

COMPOUND | activity change, negative = cytotoxicity
C=COCCOCCOCCOC=C | inactive
CCCCN | inactive
O=C(OCC1(COC(=O)c2cccnc2)CCCC(COC(=O)c2cccnc2)(COC(=O)c2cccnc2)C1O)c1cccnc1 | inactive
Cc1cccc(C)c1OCC(C)N (centres undefined) | inactive
CC(C)(C)c1n[nH]c(=S)n(N)c1=O | inactive
CC(C)=O | inactive

INPUT: Quick check: activity change, negative = cytotoxicity of CC(C)OC(=O)CCCCC(=O)OC(C)C ?
OUTPUT: inactive

INPUT: Quick check: activity change, negative = cytotoxicity of CCC(C)NC(N)=O (centres undefined) ?
OUTPUT: inactive

INPUT: Quick check: activity change, negative = cytotoxicity of CCCCOC(=O)c1ccccc1 ?
OUTPUT: inactive

====

# ASSAY OVERVIEW: qHTS assay to identify small molecule antagonists of the androgen receptor (AR) signaling pathway using the MDA cell line - cell viability counter screen (AID 743041; also: % is scaled to controls: 0 for no effect and ±100 for the full control effect; nearly all actives have a fitted effect of over 45% in size)
# ASSAY SETUP: MDA-kb2 viability, CellTiter-Fluor, 16 h, cells co-treated with R1881 androgen agonist; series mostly up to 70.3 µM
# Text: National Center for Advancing Translational Sciences [NCATS] NIH Chemical Genomics Center [NCGC] U.S. Environmental Protection Agency [EPA] National Institutes of Environmental Health Sciences [NIEHS] National Toxicology Program [NTP] U.S. Food and Drug Administration [FDA] Androgen receptor (AR), a nuclear hormone receptor, plays a critical role in AR-dependent prostate cancer and other androgen related diseases. […]
Records with an inconclusive call do not appear. Calls of active or inactive are those of the source. Calls follow the shape of the dose curve; as a rule, active = well fitted cell-killing curve with a large enough effect in the repeat runs; inconclusive = weak or mixed curves, or effect the other way; inactive = flat fitted curve, though single readings scatter.
EXPERIMENTAL ENDPOINT: viability change, negative = cytotoxic

A selection of reference data follows.
SMILES NOTATION | EXPERIMENTAL ENDPOINT | RECORDED MEASUREMENT
CCOC(=O)CC(=O)c1ccccc1 | viability change, negative = cytotoxic | inactive
CO[C@@H]1[C@@H](OC(N)=O)[C@@H](O)[C@H](Oc2ccc3c(O)c(NC(=O)c4ccc(O)c(CC=C(C)C)c4)c(=O)oc3c2C)OC1(C)C | viability change, negative = cytotoxic | inactive
COc1ccc(OC)c(Cl)c1 | viability change, negative = cytotoxic | inactive
CC1=C(C(=O)O)N2C(=O)[C@@H](NC(=O)[C@H](N)c3ccc(O)cc3)[C@H]2SC1 | viability change, negative = cytotoxic | inactive

INPUT: Quick check: viability change, negative = cytotoxic of O=C(O)c1cc(Cl)cc([N+](=O)[O-])c1Cl ?
OUTPUT: inactive
